Give Kd for every item shown.
- experimental.target: T1, human transferrin receptor (hTfR) fused to EGFP, on CHO cells (human, UniProt P02786 1-760)
- T1 construct: whole, on cells; also called human TfR; CHO-hTfR-EGFP; not shown: EGFP from pEGFP-C1 vector, fused to the N-terminal (intracellular) end of hTfR
- T1 sequence (P02786 whole entry, the tested form may be a part): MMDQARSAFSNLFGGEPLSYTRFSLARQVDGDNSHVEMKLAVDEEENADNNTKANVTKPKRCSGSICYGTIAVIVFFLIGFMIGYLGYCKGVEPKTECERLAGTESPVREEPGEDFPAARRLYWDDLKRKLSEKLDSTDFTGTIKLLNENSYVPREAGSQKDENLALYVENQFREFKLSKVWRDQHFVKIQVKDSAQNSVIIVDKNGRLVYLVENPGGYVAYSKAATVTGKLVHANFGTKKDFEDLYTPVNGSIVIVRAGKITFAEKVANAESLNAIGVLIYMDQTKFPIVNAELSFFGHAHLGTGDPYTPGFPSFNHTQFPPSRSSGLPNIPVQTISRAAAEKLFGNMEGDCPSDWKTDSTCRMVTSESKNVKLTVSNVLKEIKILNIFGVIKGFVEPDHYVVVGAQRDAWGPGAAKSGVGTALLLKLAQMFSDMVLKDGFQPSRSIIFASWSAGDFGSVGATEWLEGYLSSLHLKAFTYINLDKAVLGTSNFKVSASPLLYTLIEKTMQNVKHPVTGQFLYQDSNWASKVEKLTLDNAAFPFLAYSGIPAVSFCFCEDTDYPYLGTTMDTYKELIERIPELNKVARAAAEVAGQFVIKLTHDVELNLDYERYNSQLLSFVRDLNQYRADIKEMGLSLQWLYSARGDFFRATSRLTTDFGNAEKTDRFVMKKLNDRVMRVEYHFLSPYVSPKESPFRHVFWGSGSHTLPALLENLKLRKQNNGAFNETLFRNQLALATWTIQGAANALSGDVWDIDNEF
- protocol.notes: apparent Kd, flow cytometry, CHO cells
Answers are plain numbers, in nM.

[
  {
    "binder": "C5^h26 (VHH) VHH: EVQLVESGGGVVQPGGSLRLSCAASGTDFSINFIRWYRQAPGKGLEWVAGFTATGNTNYADSVKGRFTISRDNAKNTLYLQIDSLRPEDTAVYYCYMLDKWGQGTQVTVSS",
    "value.unit": "nM",
    "Kd": 4
  },
  {
    "binder": "VHH A24 (C5^h5) (VHH) VHH: EVQLVESGGGVVQPGGSLRLSCAASGTDFSINFIRWVRQAPGKGLEWVAGFTATGNTNYADSVKGRFTISRDNAKNTLYLQMNSLRPEDTAVYYCYMLDKWGQGTQVTVSS",
    "value.unit": "nM",
    "Kd": 193
  },
  {
    "binder": "E4 (VHH) VHH: EVQLVESGGGLVQAGDSLRLSCTASGLPLSNYPMGWFRRAPGKERELIASISRTGDGTYYADSSVKGRFTISRDNAENTVSLQMNSLKPEDTAVYYCGAGINPTKYWGQGTQVTVSS",
    "value.unit": "nM",
    "Kd": 3.1
  },
  {
    "binder": "B8^V2 (VHH) VHH: EVQLVESGGGVVQPGGSLRLSCAASGEIFSINFMRWYGQAPGKQREWVAGFTRDGSTNYPDSAKGRFTISRDNAKNTVYLQIDSLKPEDTAVYYCYMLDTWGQGTQVTVSS",
    "value.unit": "nM",
    "Kd": 0.1
  },
  {
    "binder": "C5^h12 (VHH) VHH: EVQLVESGGGVVQPGGSLRLSCAASGTDFSINFIRWYRQAPGKGLEFVAGFTATGNTNYADSVKGRFTISRDNAKNTLYLQIDSLRPEDTAVYYCYMLDKWGQGTQVTVSS",
    "value.unit": "nM",
    "Kd": 4.3
  },
  {
    "binder": "B8^V37 (VHH) VHH: EVQLVESGGGVVQPGGSLRLSCAASGEIFSINFMRWYRQAPGKQREWVAGFTRDGSTNYPDSAKGRFTISEDNAKNTVYLQIDSLKPEDTAVYYCYMLRTWGQGTQVTVSS",
    "value.unit": "nM",
    "Kd": 97
  }
]

Each binder below has a recorded value; state its Kd.
1. C5^h20 (VHH) VHH: EVQLVESGGGVVQPGGSLRLSCAASGTDFSINFIRWYRQAPGKGLEFVAGFTATGNTNYADSVKGRFTISRDNAKNAVYLQMNSLRPEDTAVYYCYMLDKWGQGTQVTVSS
2. C10a (VHH) VHH: EVQLVESGGGLVQAGDSLRLSCAASGFASHLYAIGWFRQAPGKEREKVSCISSNDGSTYYADSVKGRFTISRDTVKDMVYLQMNSLKPEDTAVYYCATDLTVHCFMAEYDWWGQGTQVTVSS

Result ::
1. 4.1
2. 4.1
